target: His-CREBBP (1081-1197) bromodomain (Homo sapiens (Human)); assay: AlphaScreen in-vitro binding assay for CREBBP; settings: biochemical
pIC50: −log10 of the molar value.
QUANTITY_NAME: pIC50

CCc1nn(C2CC2)c2c1C(c1ccc(Cl)cc1)N(c1cc(C)c3nnc(C)n3c1)C2=O (centres unmarked)    4.96

I. Cc1cc(N2C(=O)c3nn(C(=O)N(C)C)c(C)c3[C@H]2c2ccc(Cl)cc2)cn2c(C)nnc12
II. Cc1nn(C(C)C)c2c1C(c1ccc(Cl)cc1F)N(c1cc(C)c3nnc(C)n3c1)C2=O (centres unmarked)
Of the two listed items, I and II , which carries the larger pIC50 figure? Pick one; state its label. I
(I: 5.34, II: 4.96)

----------
The listing below reports pIC50 for compounds tested on His-Brd2(60-472) (Homo sapiens (Human), UniProt P25440).
Sequence (P25440 60-472): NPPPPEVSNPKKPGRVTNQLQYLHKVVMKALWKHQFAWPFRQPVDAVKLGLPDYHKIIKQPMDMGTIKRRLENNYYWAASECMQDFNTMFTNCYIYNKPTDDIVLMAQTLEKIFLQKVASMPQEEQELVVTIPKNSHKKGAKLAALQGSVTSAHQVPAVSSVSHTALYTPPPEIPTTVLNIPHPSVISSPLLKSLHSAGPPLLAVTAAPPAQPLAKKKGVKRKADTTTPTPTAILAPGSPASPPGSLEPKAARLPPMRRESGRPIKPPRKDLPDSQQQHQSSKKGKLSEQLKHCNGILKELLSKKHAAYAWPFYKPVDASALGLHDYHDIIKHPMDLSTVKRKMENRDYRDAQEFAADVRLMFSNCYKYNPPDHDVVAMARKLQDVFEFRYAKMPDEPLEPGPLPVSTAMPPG
pIC50: −log10 of the molar value.
QUANTITY_NAME: pIC50

COc1ncccc1-n1nc2c(c1C)C(c1ccc(Cl)cc1F)N(c1cc(C)c3nnc(C)n3c1)C2=O (centres unmarked) [Example 194]    7.05
Cc1cc(N2C(=O)c3nn(C4CC4)c(C)c3C2c2ccc(Cl)cc2)cn(C)c1=O (centres unmarked) [Example 20]    6.89
CCc1nn(CCOCC(F)(F)F)c2c1C(c1ccc(Cl)cc1)N(c1cc(OC)c3nnc(C)n3c1)C2=O (centres unmarked) [Example 108]    6.68
COc1ncccc1-n1nc(C)c2c1C(=O)N(c1cc(C)c3nnn(C)c3n1)C2c1ccc(Cl)cc1 (centres unmarked) [Example 109]    7.57
Cc1c2c(nn1C(C)C)C(=O)N(c1cc(Cl)c(=O)n(C)c1)C2c1ccc(Cl)cc1 (centres unmarked) [Example 65]    6.62
CCn1nc(C)c2c1C(=O)N(c1cc(C)c3nnc(C)n3c1)C2c1ccc(Cl)cc1F (centres unmarked) [Example 185]    7.15
Cc1cc(N2C(=O)c3nn(C4CC4)c(C(F)(F)F)c3C2c2ccc(Cl)cc2)cn(C)c1=O (centres unmarked) [Example 43]    7.00
Cc1cc(N2C(=O)c3nn(C(=O)N(C)C)c(C)c3C2c2ccc(Cl)cc2)cn(C)c1=O (centres unmarked) [Example 141]    6.74
Cc1nn(C(=O)N(C)C)c2c1C(c1ccc(Cl)cc1)N(c1cc(C)c(=O)n(C)c1)C2=O (centres unmarked) [Example 142]    6.74
CC(C)n1cc2c(n1)C(=O)N(c1cc(Cl)c(=O)n(C)c1)C2c1ccc(Cl)cc1 (centres unmarked) [Example 42]    7.04

P. CCc1nn(-c2cnc(OC)nc2OC)c2c1C(c1ccc(Cl)cc1)N(c1cc(C)c(=O)n(C)c1)C2=O (centres unmarked) [Example 60]
Q. COc1ncc(-n2nc(C)c3c2C(=O)N(c2cc(C)c(=O)n(C)c2)[C@H]3c2ccc(Cl)cc2)c(OC)n1 [Example 99]
Of the two listed items, P and Q , which carries the larger pIC50 figure? Pick one; state its label. P

----------
biological target: His-CREBBP (1081-1197) bromodomain (Homo sapiens (Human), UniProt Q92793); assay: AlphaScreen in-vitro binding assay for CREBBP; conditions: biochemical
Sequence (Q92793 1081-1197): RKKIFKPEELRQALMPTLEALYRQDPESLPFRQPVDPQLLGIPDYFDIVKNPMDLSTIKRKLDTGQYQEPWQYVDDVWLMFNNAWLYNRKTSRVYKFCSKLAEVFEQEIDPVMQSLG
QUANTITY_NAME: IC50

Illustrative cases are given below, each with its answer.
CNC(=O)n1nc(C)c2c1C(=O)N(c1cc(C)c3nnc(C)n3c1)C2c1ccc(Cl)cc1 (stereo not drawn)    > 37 µM
CCc1nn(C2CC2)c2c1[C@H](c1ccc(Cl)cc1)N(c1cc(C)c3nnc(C)n3c1)C2=O    > 37 µM

Okay, next one:
Entry `COc1ncccc1-n1nc(C)c2c1C(=O)N(c1cc(C)c(=O)n(C)c1)[C@H]2c1ccc(Cl)cc1` ; IC50 = > 37 µM

----------
pIC50: −log10 of the molar value.
The listing below reports pIC50 for compounds tested on His-Brd2(60-472) (Homo sapiens (Human), UniProt P25440).
QUANTITY_NAME: pIC50

I. Cc1c2c(nn1C1CC1)C(=O)N(c1cc(Cl)c(=O)n(C)c1)C2c1ccc(Cl)cc1 (stereo not drawn)
II. Cc1cc(N2C(=O)c3nn(C)c(C)c3C2c2ccc(Cl)cc2)cn(C)c1=O (stereo not drawn)
III. Cc1c2c(nn1C)C(=O)N(c1cc(Cl)c(=O)n(C)c1)[C@H]2c1ccc(Cl)cc1
Arrange these 3 compounds in increasing order of pIC50. Rank them, then answer with their labels in that order. III, II, I
(III: 4.44, II: 6.49, I: 6.74)

P. COc1ncc(-n2nc3c(c2C(F)(F)F)C(c2ccc(Cl)cc2)N(c2cc(Cl)c(=O)n(C)c2)C3=O)c(OC)n1 (stereo not drawn)
Q. CC(=O)N1CC(n2nc(C)c3c2C(=O)N(c2cc(C)c4nnc(C)n4c2)C3c2ccc(Cl)cc2)C1 (stereo not drawn)
R. Cc1c2c(nn1C)C(=O)N(c1cc(Cl)c(=O)n(C)c1)C2c1ccc(Cl)cc1 (stereo not drawn)
List from greatest to least pIC50. Rank them, then answer with their labels in that order. Q, P, R

----------
The listing below reports IC50 for molecules tested on His-Brd3(20-477) (Homo sapiens (Human), UniProt Q15059).
Sequence (Q15059 20-477): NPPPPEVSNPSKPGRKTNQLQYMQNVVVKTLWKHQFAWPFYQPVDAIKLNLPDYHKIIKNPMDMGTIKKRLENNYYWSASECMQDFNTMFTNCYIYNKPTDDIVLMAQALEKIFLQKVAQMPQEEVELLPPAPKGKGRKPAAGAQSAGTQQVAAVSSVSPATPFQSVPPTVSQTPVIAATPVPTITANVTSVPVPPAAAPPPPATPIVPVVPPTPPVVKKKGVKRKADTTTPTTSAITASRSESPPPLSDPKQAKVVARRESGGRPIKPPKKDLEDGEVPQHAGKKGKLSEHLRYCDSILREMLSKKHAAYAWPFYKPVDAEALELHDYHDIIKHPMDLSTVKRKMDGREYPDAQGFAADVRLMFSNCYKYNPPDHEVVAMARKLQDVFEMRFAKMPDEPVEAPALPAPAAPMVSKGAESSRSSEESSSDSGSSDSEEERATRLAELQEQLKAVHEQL
QUANTITY_NAME: IC50 (nM)

CCc1nn(-c2cnc(OC)nc2OC)c2c1C(c1ccc(Cl)cc1)N(c1cc(C)c(=O)n(C)c1)C2=O (stereo not drawn)    120
CCc1nn(-c2ccnn2C)c2c1C(c1ccc(Cl)cc1)N(c1cc(C)c(=O)n(C)c1)C2=O (stereo not drawn)    57
Cc1nn(C2CC2)c2c1C(c1ccc(Cl)cc1)N(c1ccc3nnn(C)c3n1)C2=O (stereo not drawn)    55
Cc1cc(N2C(=O)c3nn(C4CC4)cc3C2c2ccc(Cl)cc2)cn(C)c1=O (stereo not drawn)    91
COCc1nn(C2CC2)c2c1[C@@H](c1ccc(Cl)cc1)N(c1cc(C)c(=O)n(C)c1)C2=O    42
Cc1cc(N2C(=O)c3c(c(CO)nn3C3CC3)C2c2ccc(Cl)cc2)cn2c(C)nnc12 (stereo not drawn)    52

1. CCc1nn(CCO)c2c1C(c1ccc(Cl)cc1)N(c1cc(C)c3onc(C)c3c1)C2=O (stereo not drawn)
2. Cc1cc(N2C(=O)c3nn(C)c(C)c3[C@@H]2c2ccc(Cl)cc2)cn(C)c1=O
Of the two listed items, 1 and 2 , which carries the larger IC50 figure? Pick one; state its label. 2
(2: 25000 nM, 1: 86 nM)

----------
The listing below reports IC50 for compounds tested on His-Brd4(44-477) (Homo sapiens (Human)).
QUANTITY_NAME: IC50 (nM)

COc1ncccc1-n1nc(C)c2c1C(=O)N(c1cc(Cl)c(=O)n(C)c1)C2c1ccc(Cl)cc1 (centres unmarked) [Example 72]    79
CC(=O)N1CC(n2nc(C)c3c2C(=O)N(c2cc(C)c4nnc(C)n4c2)C3c2ccc(Cl)cc2)C1 (centres unmarked) [Example 154]    91
Cc1nn(C2CC2)c2c1C(c1ccc(F)cc1F)N(c1cc(C)c3nnc(C)n3c1)C2=O (centres unmarked) [Example 176]    100
Cc1nn(C2CC2)c2c1C(c1ccc(C(F)(F)F)cc1)N(c1cc(C)c(=O)n(C)c1)C2=O (centres unmarked) [Example 97]    89

I. Cc1cc(N2C(=O)c3nn(C4CC4)c(C(F)(F)F)c3C2c2ccc(Cl)cc2)cn(C)c1=O (centres unmarked) [Example 43]
II. CNc1cc(N2C(=O)c3c(c(C)nn3C3CC3)C2c2ccc(Cl)cc2)nn2c(C)nnc12 (racemic) [Example 113]
Returns: the label, I or II , whose recorded IC50 is the lower number. Pick one; state its label. II

----------
pIC50: −log10 of the molar value.
The listing below reports pIC50 for molecules tested on His-Brd4(44-477) (Homo sapiens (Human), UniProt O60885).
QUANTITY_NAME: pIC50

CCn1nc(C)c2c1C(=O)N(c1cc(C)c(=O)n(C)c1)C2c1ccc(Cl)cc1F (centres unmarked)    7.82
Cc1c2c(nn1C)C(=O)N(c1cc(Cl)c(=O)n(C)c1)[C@@H]2c1ccc(Cl)cc1    7.14
Cc1nn(C2CC2)c2c1C(c1ccc(Cl)cc1F)N(c1cc(C)c3nnc(C)n3c1)C2=O (centres unmarked)    7.18
CC(=O)Nc1cc(N2C(=O)c3c(c(C)nn3C3CC3)C2c2ccc(Cl)cc2)nn2c(C)nnc12 (centres unmarked)    5.96
Cc1cc(N2C(=O)c3nn(C(C)C)cc3C2c2ccc(Cl)cc2)cn(C)c1=O (centres unmarked)    7.02
Cc1nn(C(C)C)c2c1C(c1ccc(Cl)cc1F)N(c1cc(C)c(=O)n(C)c1)C2=O (centres unmarked)    7.08
Cc1nn(C(C)C)c2c1C(c1ccc(F)cc1F)N(c1cc(C)c3nnc(C)n3c1)C2=O (centres unmarked)    7.28
COc1ncccc1-n1nc(C)c2c1C(=O)N(c1cc(C)c3nnc(C)n3c1)C2c1ccc(Cl)cc1 (centres unmarked)    7.47

I. Cc1nn(-c2ccnn2C)c2c1[C@@H](c1ccc(Cl)cc1)N(c1cc(C)c(=O)n(C)c1)C2=O
II. COc1ncccc1-n1nc(C)c2c1C(=O)N(c1cc(C)c3nnc(C)n3n1)C2c1ccc(Cl)cc1 (centres unmarked)
III. Cc1cc(N2C(=O)c3nn(C)c(C)c3[C@H]2c2ccc(Cl)cc2)cn(C)c1=O
IV. Cn1cc(N2C(=O)c3c(c(C(F)(F)F)nn3C3CC3)C2c2ccc(Cl)cc2)cc(Cl)c1=O (centres unmarked)
V. Cc1cc(N2C(=O)c3nn(C)cc3C2c2ccc(Cl)cc2)cn(C)c1=O (centres unmarked)
List from greatest to least pIC50. Rank them, then answer with their labels in that order. II, III, I, V, IV

1. CCn1nc(C)c2c1C(=O)N(c1cc(C)c3nnc(C)n3c1)C2c1ccc(F)cc1F (centres unmarked)
2. Cc1nn(C2CC2)c2c1[C@@H](c1ccc(Cl)cc1)N(c1cc(Cl)c(=O)n(C)c1)C2=O
Returns: the label, 1 or 2 , whose recorded pIC50 is the lower number. Pick one; state its label. 1

1. Cc1cc(N2C(=O)c3c(c(C4CC4)nn3-c3ccnn3C)C2c2ccc(Cl)cc2)cn2c(C)nnc12 (centres unmarked)
2. COc1ncc(-n2nc3c(c2C(C)C)[C@@H](c2ccc(Cl)cc2)N(c2cc(C)c4onc(C)c4c2)C3=O)c(OC)n1
Of the two listed items, 1 and 2 , which carries the larger pIC50 figure? Pick one; state its label. 1

I. Cc1cc(N2C(=O)c3nn(C4CC4)c(C)c3C2c2ccc(Cl)cc2)cn2c(C)nnc12 (centres unmarked)
II. COc1ncccc1-n1nc2c(c1C)C(c1ccc(Cl)cc1F)N(c1cc(C)c3nnc(C)n3c1)C2=O (centres unmarked)
Of the two listed items, I and II , which carries the larger pIC50 figure? Pick one; state its label. I
